Where a name gives a salt, the structure may show the parent alone.
Task for the reader: assign each of the following compounds its reported melting point.

Prompt: // melting point lookup, key: CCCN1CCCC(C2=CC(=O)CCC2)C1 (stereo not shown) (as salt: hydrochloride)
Completion: 184 to 185 °C

Prompt: And for CCN(CC)CCC1=CC(=O)CCC1 (as salt: hydrochloride) ?
Completion: 148 to 149 °C

Prompt: And for CCCN(CCC)CCC1=CC(=O)CCC1 (as salt: hydrochloride) ?
Completion: 95 to 97 °C

Prompt: And for CCCN(CCC1=CC(=O)CCC1)CCc1ccccc1 (as salt: hydrochloride) ?
Completion: 110 to 112 °C
